test system: SK-N-MC; test: Ability to reverse NPY-induced intracellular [Ca2+] mobilization in SK-N-MC cells; format: functional, cell-based, Homo sapiens
measurement-type: pKi
One number for each entry, as −log10 of the molar value.

Request: For O=C(CN1CCC(N2CCCCC2)CC1)c1c(COc2ccc(Cl)cc2)n(CCC[C@@H]2CCCNC2)c2ccccc12 , what is its reported pKi?
Result: 8.49

----------
Please go through the items and note down their Ki.
molecular target: Neuropeptide Y receptor type 1 (Homo sapiens, UniProt P25929); assay: Binding affinity for Neuropeptide Y receptor type 1 expressed in AV-12 cells; format: cell-based, AV12
Sequence (P25929 whole entry): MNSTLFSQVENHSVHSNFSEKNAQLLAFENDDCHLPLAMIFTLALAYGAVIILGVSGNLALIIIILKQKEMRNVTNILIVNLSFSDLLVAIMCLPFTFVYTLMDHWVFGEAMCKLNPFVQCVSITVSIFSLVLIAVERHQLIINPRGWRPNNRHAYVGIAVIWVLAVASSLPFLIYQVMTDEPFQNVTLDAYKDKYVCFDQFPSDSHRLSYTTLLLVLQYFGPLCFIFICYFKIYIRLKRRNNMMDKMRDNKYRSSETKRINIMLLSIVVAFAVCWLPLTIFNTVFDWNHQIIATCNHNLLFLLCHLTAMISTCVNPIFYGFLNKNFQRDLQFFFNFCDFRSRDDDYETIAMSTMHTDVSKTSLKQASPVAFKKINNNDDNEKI
One number for each entry, in nM.

Some compounds with recorded Ki:
INSERT INTO assay_data (structure_notation, system_name, measurement_type, unit_tag, test_value) VALUES
  ('Cn1c(COc2ccc(Cl)cc2)c(CCN2CCC(N3CCCCC3)CC2)c2ccccc21', 'Neuropeptide Y receptor type 1 (Homo sapiens, UniProt P25929)', 'Ki', 'nM', 93),
  ('O=C(CN1CCC(N2CCCCC2)CC1)c1c(COc2ccc(Cl)cc2)n(CCC2CCNCC2)c2ccccc12', 'Neuropeptide Y receptor type 1 (Homo sapiens, UniProt P25929)', 'Ki', 'nM', 1.9),
  ('Cn1c(COc2ccc(Cl)cc2)c(C(=O)CN2CCC(N3CCCCC3)CC2)c2ccccc21', 'Neuropeptide Y receptor type 1 (Homo sapiens, UniProt P25929)', 'Ki', 'nM', 26),
  ('O=C(CN1CCC(N2CCCCC2)CC1)c1c(COc2ccc(Cl)cc2)n(CCC[C@@H]2CCCNC2)c2ccccc12', 'Neuropeptide Y receptor type 1 (Homo sapiens, UniProt P25929)', 'Ki', 'nM', 0.75),
  ('Clc1ccc(OCc2c(CN3CCC(N4CCCCC4)CC3)c3ccccc3n2CCN2CCCCC2)cc1', 'Neuropeptide Y receptor type 1 (Homo sapiens, UniProt P25929)', 'Ki', 'nM', 98),
  ('Cn1c(COc2ccc(Cl)cc2)c(CN2CCCCC2)c2ccccc21', 'Neuropeptide Y receptor type 1 (Homo sapiens, UniProt P25929)', 'Ki', 'nM', 2320),
  ('Cn1c(COc2ccc(Cl)cc2)c(CN2CCC(N3CCCCC3)CC2)c2ccccc21', 'Neuropeptide Y receptor type 1 (Homo sapiens, UniProt P25929)', 'Ki', 'nM', 559),
  ('O=C(CN1CCC(N2CCCCC2)CC1)c1c(COc2ccc(Cl)cc2)n(CCC[C@H]2CCCNC2)c2ccccc12', 'Neuropeptide Y receptor type 1 (Homo sapiens, UniProt P25929)', 'Ki', 'nM', 1.4);

Could you tell me Ki for each of these compounds? They are listed below.
1. Cn1c(COc2ccc(Cl)cc2Cl)c(CN2CCCCC2)c2ccccc21
2. Cn1c(COc2ccc(Cl)cc2)c(C(=O)C(=O)N2CCC(N3CCCCC3)CC2)c2ccccc21
3. Cn1c(COc2ccc(Cl)cc2)c(CCN2CCCCC2)c2ccccc21

Result:
1260
440
2880
